# Target Or System: GABA A receptor α5β3γ2 (Homo sapiens, UniProt P18507+P31644)
# Construct: expressed in transfected cells; host or cells: HEK293 cells, transiently transfected; membranes prepared
# Assay Protocol: [3H]flumazenil competition binding, human GABA A α5β3γ2
# Measurement Conditions: competition for [3H]flumazenil (0.5 nM) binding, HEK293 cells expressing human (transiently transfected) α5β3γ2; means of two determinations; read-out: Ki[nM] hα5
Ki for assorted compounds
The answer is to be given in nM; state only the numeric part.

COc1cc(N2CCOCC2)c(F)cc1-c1nnc(-c2c(-c3ccccc3)noc2C)o1 : 6
COc1cc(N(C)C(=O)C2CC2)ccc1-c1nnc(-c2c(-c3ccccc3)noc2C)o1 : 48.8

Continue with the compound presented below.
(Q) Data request, read-out Ki, for Cc1onc(-c2ccccc2)c1-c1nnc(-c2ccc(C(=O)NC3CCOCC3)cc2)o1
(A) 86

###

# Target Or System: GABA A receptor α5β3γ2 (Homo sapiens, UniProt P18507+P31644)
# Construct: expressed in transfected cells; host or cells: HEK293 cells, transiently transfected; membranes prepared
# Assay Protocol: [3H]flumazenil competition binding, human GABA A α5β3γ2
# Measurement Conditions: competition for [3H]flumazenil (0.5 nM) binding, HEK293 cells expressing human (transiently transfected) α5β3γ2; means of two determinations; read-out: Ki[nM] hα5
Parameter Measured: Ki (nM)
Please respond with the number in nM and leave the unit unwritten.

// known answers, use as guide
Cc1ccccc1-c1nnc(-c2c(-c3ccccc3)noc2C)o1 : 234
COc1cc(N2CCOCC2)ccc1-c1nnc(-c2c(-c3ccccc3)noc2-c2ccccc2)o1 : 15.3
Cc1onc(-c2ccccc2)c1-c1nnc(-c2ccnc(Cl)c2)o1 : 88.4

(Q) May I ask what Ki has been recorded for Cc1onc(-c2ccccc2)c1-c1nnc(-c2ccc3[nH]ccc3c2)o1 ?
(A) 134

###

# Target Or System: GABA A receptor α5β3γ2 (Homo sapiens, UniProt P18507+P31644)
# Construct: expressed in transfected cells; host or cells: HEK293 cells, transiently transfected; membranes prepared
# Assay Protocol: [3H]flumazenil competition binding, human GABA A α5β3γ2
# Measurement Conditions: competition for [3H]flumazenil (0.5 nM) binding, HEK293 cells expressing human (transiently transfected) α5β3γ2; means of two determinations; read-out: Ki[nM] hα5
Measured Ki values are reported for all entries that follow.
Please reply with the bare figure in nM and do not write the unit itself.

Cc1onc(-c2ccccc2)c1-c1nnc(-c2ccc3[nH]c(=O)[nH]c3c2)o1 [Example 34] : 7.9
COc1cc(N2CCOCC2)ccc1-c1nnc(-c2conc2-c2ccccc2)o1 [Example 95] : 44.5
COc1cc(N2CCOCC2)ccc1-c1nnc(-c2c(-c3ccccc3)noc2N2CCOCC2)o1 [Example 107] : 31.1

(Q) State its Ki on GABA A receptor α5β3γ2 (Homo sapiens, UniProt P18507+P31644): COc1cc(-n2ccnc2)ccc1-c1nnc(-c2c(-c3ccccc3)noc2C)o1 [Example 33]
(A) 7.5

(Q) What value of Ki on GABA A receptor α5β3γ2 (Homo sapiens, UniProt P18507+P31644) does COc1cc(NS(=O)(=O)c2cccs2)ccc1-c1nnc(-c2c(-c3ccccc3)noc2C)o1 [Example 62] have?
(A) 42.8

(Q) Any idea what Ki came out for Cc1onc(-c2ccccc2)c1-c1nnc(-c2ccc(N3CC[S+]([O-])CC3)cc2)o1 [Example 39] on GABA A receptor α5β3γ2 (Homo sapiens, UniProt P18507+P31644)?
(A) 16.7

(Q) // fetch GABA A receptor α5β3γ2 (Homo sapiens, UniProt P18507+P31644) Ki for Cc1onc(-c2ccccc2)c1-c1nnc(-c2ccc(N3CCS(=O)(=O)CC3)nc2)o1 [Example 141]
(A) 17.7
